biological target: T1, cynoTIGIT (PL40461) (cynomolgus monkey); test: Octet, antibody on anti-huIgG Fc capture tips, cynoTIGIT as analyte
T1 construct: Soluble protein; also called Cyno TIGIT (Octet analyte)
T1 sequence (chain, as listed by the source limits assumed): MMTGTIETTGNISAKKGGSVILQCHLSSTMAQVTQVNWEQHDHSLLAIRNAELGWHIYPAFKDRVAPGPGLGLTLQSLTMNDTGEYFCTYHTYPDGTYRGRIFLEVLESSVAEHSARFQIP
Readout: Kd (nM)
// units = nM; emit number, no label

Worked cases, Kd given:
Binder	Quantitative readout
55G7 (antibody, V domains shown, Fully human XenoMouse antibody, tested as hybridoma supernatant or purified mAb) VH: QVQLVESGGGVVQPGRSLRLSCAASGFTFSSYGMHWVRQAPGKGLEWVALIWFDESNIYYADSVKGRFTISRDNSKNTLYLQMNSLRAEDTAVYFCARGYDLLTGYYNFDFWGLGTLVTVSA VL: QAGLTQPPSVSKGLRQTATLTCTGNTNNVGNRGAAWLQQHQGHPPKLLSYRNNNRPSGISERLSASRSGNTASLTITGLQPEDEADYYCSAWDSSLSAWVFGGGTKLTVLG	17
66H9 (antibody, V domains shown, Fully human XenoMouse antibody, tested as hybridoma supernatant or purified mAb) VH: QVQLQESGPGLVKPSQTLSLTCTVSGGSISSVYFYWNWIRQHPGKGLEWIGYIYYSGGTYYNPSLRSRVTISVDTSKNQFSLKLNSVTAADTAVYYCARGSIAAGGGYFYYNDMDVWGQGTTVTVSS VL: EIVLTQSPDFQSVTPKEKVAITCRASQSIGSSLHWYQQKPDQSPKPLIKYVSQSFSGVPSRFSGSGSGTDFTLTINSLEAEDAATYYCHQSSSLPLTFGGGTKVEIKR	18

In the following, a different binder is considered.
Entry 43B7 (antibody, V domains shown, Fully human XenoMouse antibody, tested as hybridoma supernatant or purified mAb) VH: QVQLQESGPGLVKPSQTLSLTCTVSGGSISSGGYYWSWIRQHPGKGLEWIGYIYYRGGTYYNPSLRSRVTMSVDTSKNQFSLMLSSVTAADTAVYYCARTIFGVIILDNWGQGTPVTVSS VL: DIQMTQSPSSLSASVGDRVTITCRSSQSISSYLNWYQQKPGRAPKLLIHAASSLQSGVPSRFSGSGSGTDFTLTISSLQPEDFASYCCQQSYTTPPTFGGGTKVEIKR , Kd reported as 13

FYI, the data here is from patent US20220017616A1.
